- target: Glucocorticoid receptor (Homo sapiens)
- Sequence (P04150 whole entry): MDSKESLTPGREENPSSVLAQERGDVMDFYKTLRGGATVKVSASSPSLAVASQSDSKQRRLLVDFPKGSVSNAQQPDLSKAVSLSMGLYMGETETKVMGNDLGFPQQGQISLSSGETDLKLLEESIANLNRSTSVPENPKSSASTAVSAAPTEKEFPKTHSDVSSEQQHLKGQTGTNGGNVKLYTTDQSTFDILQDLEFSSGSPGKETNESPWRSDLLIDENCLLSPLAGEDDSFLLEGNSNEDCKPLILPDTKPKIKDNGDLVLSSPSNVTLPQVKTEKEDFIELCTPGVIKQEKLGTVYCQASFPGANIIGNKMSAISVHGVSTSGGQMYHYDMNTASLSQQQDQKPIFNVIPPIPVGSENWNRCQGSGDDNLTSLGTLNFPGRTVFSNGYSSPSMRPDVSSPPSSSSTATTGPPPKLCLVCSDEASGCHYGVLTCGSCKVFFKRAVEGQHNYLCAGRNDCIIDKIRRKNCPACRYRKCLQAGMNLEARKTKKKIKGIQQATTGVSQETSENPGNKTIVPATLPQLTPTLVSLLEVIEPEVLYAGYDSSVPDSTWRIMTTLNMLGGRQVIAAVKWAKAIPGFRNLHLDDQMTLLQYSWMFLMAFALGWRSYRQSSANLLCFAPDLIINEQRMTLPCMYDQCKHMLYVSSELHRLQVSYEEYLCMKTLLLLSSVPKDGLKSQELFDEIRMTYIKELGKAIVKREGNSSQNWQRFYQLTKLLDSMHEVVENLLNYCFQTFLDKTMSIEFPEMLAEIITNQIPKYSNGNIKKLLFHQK
Field: pKi. Provide a value for each of the molecules that follow.
Note: pKi values are expressed as the negative base-10 logarithm of concentration in M.

I'd like to know its pKi. The molecule in question is COc1c(O)ccc2c1-c1ccc3c(c1/C(=C/c1sccc1/C(C)=N/O)O2)C(C)=CC(C)(C)N3
9.22

What about this molecule? CO/N=C(\C)c1ccsc1/C=C1\Oc2ccc(O)c(OC)c2-c2ccc3c(c21)C(C)=CC(C)(C)N3
8.96

What about this molecule? COc1c(O)ccc2c1-c1ccc3c(c1/C(=C/c1sccc1CO)O2)C(C)=CC(C)(C)N3
9.15

What about this molecule? CC/C=C(\C)c1ccsc1/C=C1\Oc2ccc(O)c(OC)c2-c2ccc3c(c21)C(C)=CC(C)(C)N3
8.36

What about this molecule? COc1c(O)ccc2c1-c1ccc3c(c1/C(=C/c1sccc1C(C)O)O2)C(C)=CC(C)(C)N3 (racemic)
8.92

Values from ChEMBL document CHEMBL1148778
